# test description: Solubility
# Assay type: physicochemical
measurement label: solubility

Some solved cases for reference:
{"input smiles": "O=S(=O)(/C=C/c1cccc(Cl)c1)Nc1cccc(OCc2cccc(Cl)c2)c1", "solubility": "19 µM"}
{"input smiles": "COc1ccc(NS(=O)(=O)/C=C/c2cccc(Cl)c2)cc1O", "solubility": "450 µM"}

# input Tell me the measured solubility of COc1cccc(COc2cc(NS(=O)(=O)/C=C/c3cccc(Cl)c3)ccc2OC)c1 , please.
# output 50 µM

###

// reported IC50 per item
# target of assay: AmpC β-lactamase (Escherichia coli)
# Sequence (P00811 20-377): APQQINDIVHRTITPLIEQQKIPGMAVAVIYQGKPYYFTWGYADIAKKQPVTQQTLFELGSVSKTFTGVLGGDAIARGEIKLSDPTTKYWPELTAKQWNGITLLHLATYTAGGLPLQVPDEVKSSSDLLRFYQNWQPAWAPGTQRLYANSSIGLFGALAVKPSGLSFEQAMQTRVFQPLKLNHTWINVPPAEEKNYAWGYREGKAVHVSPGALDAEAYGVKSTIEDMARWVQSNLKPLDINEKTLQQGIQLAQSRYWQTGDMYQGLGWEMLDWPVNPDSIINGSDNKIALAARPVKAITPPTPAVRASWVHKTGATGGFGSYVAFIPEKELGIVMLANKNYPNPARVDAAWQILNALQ
# test description: Spectrophotometric nitrocefin hydrolysis inhibition assay, AmpC
# value in nM; strip the unit string

{"input smiles": "COc1cccc(/C=C/S(=O)(=O)Nc2cccc(OCc3cccc(Cl)c3)c2)c1", "display unit": "nM", "measured number": 555}

# input Tell me the measured IC50 of COc1cc(NS(=O)(=O)/C=C/c2cccc(Cl)c2)ccc1OCc1cccc(Cl)c1 , please.
# output 706

# input Ok, now COc1ccc(NS(=O)(=O)/C=C/c2cccc([N+](=O)[O-])c2)cc1OCc1cccc(Cl)c1
# output 563

# input Ok, now COc1ccc(NS(=O)(=O)/C=C/c2cccc(Cl)c2)cc1OCc1cccc(Cl)c1
# output 671

# input Ok, now COc1ccc(NS(=O)(=O)/C=C/c2cccc(Cl)c2)cc1O
# output 3750

# input Ok, now COc1cccc(COc2cc(NS(=O)(=O)/C=C/c3cccc(Cl)c3)ccc2OC)c1
# output 1070

# input Ok, now O=S(=O)(/C=C/c1cccc(Cl)c1)Nc1cccc(OCc2cccc(F)c2)c1
# output 846

The values you see were collected from patent US9730913B2.
